The reader will find pIC50 measurements below, all made with UniProtKB P12931.
Sequence (P12931 whole entry, species assumed): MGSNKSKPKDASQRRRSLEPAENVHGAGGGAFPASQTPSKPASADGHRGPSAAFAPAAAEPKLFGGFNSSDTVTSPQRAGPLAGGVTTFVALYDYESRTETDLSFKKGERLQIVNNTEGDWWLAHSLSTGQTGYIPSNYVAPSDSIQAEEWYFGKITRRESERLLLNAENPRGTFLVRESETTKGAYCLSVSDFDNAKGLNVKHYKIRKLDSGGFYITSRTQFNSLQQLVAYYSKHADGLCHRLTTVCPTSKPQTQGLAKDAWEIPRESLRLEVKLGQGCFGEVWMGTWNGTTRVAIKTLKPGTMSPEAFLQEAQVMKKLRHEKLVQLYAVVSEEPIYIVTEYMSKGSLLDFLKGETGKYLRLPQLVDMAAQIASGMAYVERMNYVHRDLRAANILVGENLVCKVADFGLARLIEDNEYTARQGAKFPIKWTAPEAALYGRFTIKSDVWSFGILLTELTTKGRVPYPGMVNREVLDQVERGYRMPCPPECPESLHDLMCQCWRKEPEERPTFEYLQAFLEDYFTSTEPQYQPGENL
pIC50: −log10 of the molar value.
PROPERTY_MEASURED: pIC50

>>> recorded_result("CN1CCN(c2ccc(Nc3ncc4cnc(=O)n(C5CC6CCC5C6)c4n3)cc2)CC1 (stereo not drawn)")
5.64
>>> recorded_result("CN(C)C1CCN(c2ccc(Nc3ncc4c(n3)N(C3CCCC3)C(=O)NC4)cc2)CC1")
6.43
>>> recorded_result("O=C1NCc2cnc(Nc3ccc(N4CCC(CCN5CCOCC5)CC4)cc3)nc2N1C1CCCC1")
5.80

---

# EXPERIMENTAL_TARGET: PDGF-β receptor tyrosine kinase (Mus musculus, UniProt P05622)
# Construct: amplify a fragment of DNA that codes for the intracellular tyrosine kinase domain
# Sequence (P05622 599-961 limits assumed): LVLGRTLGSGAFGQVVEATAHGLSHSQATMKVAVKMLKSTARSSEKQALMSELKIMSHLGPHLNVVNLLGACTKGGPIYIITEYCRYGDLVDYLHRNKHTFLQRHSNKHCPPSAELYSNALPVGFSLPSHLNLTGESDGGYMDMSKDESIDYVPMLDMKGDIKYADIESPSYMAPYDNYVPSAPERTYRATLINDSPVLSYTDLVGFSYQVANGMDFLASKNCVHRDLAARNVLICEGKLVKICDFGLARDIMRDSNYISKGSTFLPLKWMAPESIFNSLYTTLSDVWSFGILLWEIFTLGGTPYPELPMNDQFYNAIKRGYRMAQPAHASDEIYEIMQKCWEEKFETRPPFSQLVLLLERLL
# ASSAY_PROTOCOL: PDGF receptor tyrosine kinase assay
# REPORTED_CONDITIONS: intracellular tyrosine kinase domain, SF9 lysate
pIC50: −log10 of the molar value.
# key: entry, value: pIC50
PROPERTY_MEASURED: pIC50

>>> recorded_result("O=C1NCc2cnc(Nc3ccc(N4CCC(CCN5CCOCC5)CC4)cc3)nc2N1C1CCCC1")
5.96
>>> recorded_result("CN(C)C1CCN(c2ccc(Nc3ncc4c(n3)N(C3CCCC3)C(=O)NC4)cc2)CC1")
6.49
